Cited source for all entries: patent US20220403001A1

ASSAY_METHOD_TEXT: Plasma PK of Tadalafil and Vardenafil after a single oral dose (LC/MS/MS)
Assay type: in vivo, mice
CONDITION_DETAILS: mouse, CD-1 mice, single oral dose 100 mg/kg, 1 hour post dose, read-out: Plasma levels
MEASURE_NAME: concentration at 1 h (µM)
Provide only the numeric value, understood in µM.

# molecule CCCc1nc(C)c2c(=O)[nH]c(-c3cc(S(=O)(=O)N4CCN(CC)CC4)ccc3OCC)nn12 [Vardenafil] ; its concentration at 1 h = 7.81

---

ASSAY_METHOD_TEXT: Plasma PK of Tadalafil and Vardenafil after a single oral dose (LC/MS/MS)
Assay type: in vivo, mice
CONDITION_DETAILS: mouse, CD-1 mice, single oral dose 100 mg/kg, 4 hours post dose, read-out: Plasma levels
MEASURE_NAME: concentration at 4 h (µM)
Provide only the numeric value, understood in µM.

# compound CCCc1nc(C)c2c(=O)[nH]c(-c3cc(S(=O)(=O)N4CCN(CC)CC4)ccc3OCC)nn12 [Vardenafil] ; its concentration at 4 h = 3.32

---

ASSAY_METHOD_TEXT: Plasma PK of Tadalafil and Vardenafil after a single oral dose (LC/MS/MS)
Assay type: in vivo, mice
CONDITION_DETAILS: mouse, NSG mice, single oral dose 30 mg/kg, 2 hours post dose, read-out: Plasma levels
MEASURE_NAME: concentration at 2 h
Entry format: amount then unit.

# compound CN1CC(=O)N2[C@H](c3ccc4c(c3)OCO4)c3[nH]c4ccccc4c3C[C@@H]2C1=O ; its concentration at 2 h = 17.6 µM

---

ASSAY_METHOD_TEXT: Plasma PK of Tadalafil and Vardenafil after a single oral dose (LC/MS/MS)
Type: in vivo, mice
CONDITION_DETAILS: mouse, CD-1 mice, single oral dose 10 mg/kg, 1 hour post dose, read-out: Plasma levels
MEASURE_NAME: concentration at 1 h (nM)
Provide only the numeric value, understood in nM.

# compound CCCc1nc(C)c2c(=O)[nH]c(-c3cc(S(=O)(=O)N4CCN(CC)CC4)ccc3OCC)nn12 ; its concentration at 1 h = 160

---

ASSAY_METHOD_TEXT: Plasma PK of Tadalafil and Vardenafil after a single oral dose (LC/MS/MS)
Assay type: in vivo, mice
CONDITION_DETAILS: mouse, NSG mice, single oral dose 30 mg/kg, 4 hours post dose, read-out: Plasma levels
Procedure: Plasma samples collected over time and PDE5 inhibitor concentrations were determined by LC/MS/MS (Table 60). The Vardenafil/Tadalafil levels detected in the plasma declined over time and were commensurate with the initial dose orally administered to the animal.
MEASURE_NAME: concentration at 4 h

# compound CN1CC(=O)N2[C@H](c3ccc4c(c3)OCO4)c3[nH]c4ccccc4c3C[C@@H]2C1=O ; its concentration at 4 h = 12.1 µM

---

ASSAY_METHOD_TEXT: Plasma PK of Tadalafil and Vardenafil after a single oral dose (LC/MS/MS)
Format: in vivo, mice
CONDITION_DETAILS: mouse, CD-1 mice, single oral dose 100 mg/kg, 12 hours post dose, read-out: Plasma levels
MEASURE_NAME: concentration at 12 h (nM)
Provide only the numeric value, understood in nM.

# compound CCCc1nc(C)c2c(=O)[nH]c(-c3cc(S(=O)(=O)N4CCN(CC)CC4)ccc3OCC)nn12 ; its concentration at 12 h = 40
